# measurement.notes: soluble on expression in E. coli; label from the status in PepcDB or PDB records
reported.endpoint: soluble on expression in E. coli

INSERT INTO assay_data (residue_string, measured_value) VALUES
  ('MSTPTGQPIGLGLPDAPLPVLAPRRKTRQLMVGNVGVGSDYPVSVQSMTTTKTHDVNATLQQIAQLTASGCDIVRVACPKTVDAEALPAIAKKSPIPVIADIHFQPKYIFSAIDAGCAAVRVNPGNIKEFDGRVKEVAKAAGDAGIPIRIGVNAGSLDKRIMEKYGKATPEALVESALWEAGLFEDCGFGDIAISVKHNDPVIMVEAYRQLAAQSDYPLHLGVTEAGPAFQGTIKSSVAFGSLLSQGIGDTIRVSLSADPVEEIKVGDQILQSLNLRKRGLEIVSCPSCGRAQVDVYSLAEEVTAALDGMSIPLRVAVMGCVVNGPGEARDADLGVASGNGKGQIFVRGEVIKTVPESQIVETLIEEAVRLAEAEGLEIEEGAGPQVKITR', 'not soluble'),
  ('LPVPAGSRFEARVLGETRAMCCPGCQAVAEAIVAGGLESYYRHRSENAANPEALPKALSEELQLYDRPDVQGGFVRHEGELAETSLMIEGISCAACGWLIEKHLRQLPGVAEARLNLSNHRLHVRWQDSQLPLSQLLGELRQIGYAGHPYQPDRATERLAMENRR', 'not soluble');

----------
# measurement.notes: soluble on expression in E. coli; label from the status in PepcDB or PDB records
reported.endpoint: soluble on expression in E. coli

Here's what some known entries look like.
INSERT INTO results (residue_string, measured_value) VALUES
  ('GMSETITFPPLMTGEAAGPGQDPFDLACQKAELGVDAGLVVYELGTDVLRAALVLAPEVPLAKAMAMLPVCGVGFQNALGALAPPEVAVHLDWNGALRINGARCGRLRIAASTDDPDTQPDWLVVGLDLPLWPEGDGGETPDETALYAEGCADVAAPRLLESWARHCLHWINRWDEGELETIHGEWRGLAHGMGEARTEAGRSGTFLGVDEDFGMLLRDETTTHLIPLTTVLVQD', 'soluble'),
  ('MSSKHEILNALKLSALTNHPMPSIDVAPRVEDLVGQFETNLKTVAGTLHREGGLAALQAKVDELIAQGLQVISLVEGVTANRDVPPTAHELRDIDYAVIPGDVGVAENGAIWVNNKNLGHRVTPFICENLILALPIHKIVPNMHQAAKEVTLDAGEFGVFIAGPSKTADIEQALVVGAHGACSLNVYLV', 'soluble'),
  ('MGSDKIHHHHHHMIDSHAHLISADVERYPTSPLSGELEPGALDNPVTAERLLALMDEQGIERALAVQRAHIYGFNNAYVCDAAQRYPERLRALGMVDALDQNIREQVRHWVGERGAVGIRLTEPFKGADPSWFASPEAMAAWETVSELGGSVRLHFYRWNREAALKALKPVLQRFPQTTVVLDHFSNIVGESGAPDHGVDATLLEMVEHSNVYLLYSMINLGKLAAAQMAAAPMVERVVREFGADRVMWGSDVAQSKGSYAQMVALAKESVSLLSETDQRKVLHDTAHAVYWGTR', 'not soluble'),
  ('MSLEEPRGINYVELSTDDLGTLTRQMHQLGFQFIGYHRSKPHVQLWLRGQARIIVSEVTEEAGTTSAPVNGTFLRGIGFEVTDSQSAMDRAALLHAEEVPRDQAHDDEVLRGVFAPDGSEVFFHQFDAATPAWIKEFGHDHDEQVSHIDHVNLAQPSNHYDEAVLFYTSLLALHAQSSQDVPSPSGLVRSQVMSSTDGSVRMPLNVSPQPNAEAVAGRGIGSVVEAYPEHVAVACEDIFQAAATALSRGLDFLPVPQNYYEDLDSRFDLDLEFLQRLQENHVLYDRDEHGEFLHFYTSTIGSVFFEMIERRGDYLGFGAPDAPVRLAAQHRKNSQREGHHHHHH', 'not soluble');

// below: soluble on expression in E. coli requested for another sequence
-- ask Please supply the value of reported soluble on expression in E. coli for the item MSLDCKIDIIPRVLHFKQPAGTSRGTYTTRKVWYLHFTAPEFPNWVGIGECAPLPNLSCDDLPDYEEVLAKICRQVENQGGKLDMEALCKYPSILFGLETAIRHFFEGSWALWDTPFSRGEAGIPINGLIWMGDFNRMLAQIEKKMEAGFRCIKLKIGAINFEEELALLQHIRSHYSSKEIELRVDANGAFSPTDAMEKLKRLSELDLHSIEQPIRAGQWEEMARLTSESPLPIALDEELIGYNTWEEKQRLLSAIRPQYIIIKPSLHGGLAGGEEWIAEAEKLNIGWWITSALESNIGLNAIAQWCATFQNPLPQGLGTGLLFTDNVEMPLEIRKDCLWFCKEGHHHHHH
-- reply soluble
